- method: Solubility in water and bio-relevant media at 37° C. (HPLC of filtrate, pH of filtrate, XRPD of filter cake)
- Assay type: physicochemical
- condition-description: pH of the filtrate, FaSSIF, 0.5 h
- Experimental: Solubility of Form I of free acid, Form 1 and Form 2 of potassium salt, and Form A of sodium salt were tested in water and in bio-relevant media of Simulated Intestinal Fluid (SIF), Simulated Gastric Fluid (SGF), Fasted State Simulated Intestinal Fluid (FaSSIF), and Fed State Simulated Intestinal Fluid (FeSSIF) at 37° C. up to 24 hours. About 12 mg of the sample was weighed into sample vials and then 1.5 mL of each media was added to make suspensions respectively. […]
The entries below come with measured PH 0.5 h values attached.
parameter-measured: PH 0.5 h

* Cc1nn(-c2cc(Cl)c(Oc3cc(C(C)C)c(=O)[nH]n3)c(Cl)c2)c(=O)[n-]c1=O.[K+] [Potassium salt Form 2] | 7.04
* Cc1nn(-c2cc(Cl)c(Oc3cc(C(C)C)c(=O)[nH]n3)c(Cl)c2)c(=O)[n-]c1=O.[K+] [Potassium salt Form 1] | 7.03
* Cc1nn(-c2cc(Cl)c(Oc3cc(C(C)C)c(=O)[nH]n3)c(Cl)c2)c(=O)[nH]c1=O [Free acid Form I] | 6.72
* Cc1nn(-c2cc(Cl)c(Oc3cc(C(C)C)c(=O)[nH]n3)c(Cl)c2)c(=O)[n-]c1=O.[Na+] [Sodium salt Form A] | 7.07
